- System: Plasmodium falciparum Sir2 (PF13_0152, Sir2A)
- assay info: pfSir2 binders on small-molecule microarrays, primary screen, biochemical, small-molecule microarray, 635 nm fluorescence (AID 1098);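 also: score merges spot fluorescence intensity with its signal-to-noise ratio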
- assay conditions: small-molecule microarray binding, fluorescence 635 nm; higher = more signal
assay endpoint: composite z-score

*Q* Give reported composite z-score value for "C=CCNC(=O)[C@H]1[C@@H]2C(=O)O[C@@H](c3ccccc3)[C@@H](c3ccccc3)N2[C@@H](c2ccc(O)cc2)[C@]12C(=O)Nc1ccc(C#CCC(C(=O)OC)C(=O)OC)cc12"
*A* -0.147

* * *

- assay info: yeast growth modulation, basal conditions, primary screen, YJM789 clinical isolate, OD600, 24 h (AID 1089);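 also: growth of clinical yeast isolate S. cerevisiae YJM 789 seeded 1000 cells per well; test concentration not given here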
- assay conditions: S. cerevisiae YJM789 growth, higher = more signal, called active from +8 up or from −8 down
assay endpoint: z-score
Give the value as a plain number.

Check out these entries, answers already filled in.
* O=C1c2ccccc2[C@@]2(Cc3ccccc3N(CC(F)(F)F)C2=O)[C@H](c2ccc(CO)cc2)N1Cc1ccccc1 | 0.633
* COc1ccc(CCNC(=O)[C@@H]2c3ccccc3C(=O)N(C(C)C)[C@H]2c2ccc(CO)cc2)cc1 | 0.342

*Q* Give reported z-score value for COC(=O)[C@H](Cc1ccccc1)N1CC(C)(OC)O[C@@H](Cc2ccccc2)[C@H]1/C=C/C1CC1 (some centres undefined)
*A* 0.0394

*Q* Give reported z-score value for COc1ccc(C(O)C2C=CC3C(=O)N(c4ccccc4)C(=O)C3N2Nc2ccccc2F)c2ccccc12 (centres undefined)
*A* -0.466
